- Target system: CaSR (Rattus norvegicus)
- Construct: expressed in transfected cells; host or cells: CHO (Chinese hamster ovary) cells, CHO(CaSR)
- Protocol notes: Accumulation of tritiated inositol phosphates in CHO(CaSR) cells
- Format: cell-based
- Test settings: compound 10 μM; basal level at 2 mM Ca2+ = 100%; read-out: Accumulation of (1H)-IP % of basal level, CHO (CaSR)
Recorded endpoint: activity at 10 µM (%)

Worked examples follow.
| Compound | activity at 10 µM [%] |
| --- | --- |
| COc1cccc([C@@H](C)NCc2cc3ccccc3[nH]2)c1 | 482 |
| C[C@H](NCc1cc2ccccc2[nH]1)c1cccc2ccccc12 | 225 |
| CC(NCc1cc2cc(F)ccc2[nH]1)c1cccc2ccccc12 (centres unmarked) | 420 |
| COc1ccc(S(=O)(=O)n2c(CNC(C)c3cccc4ccccc34)cc3ccccc32)cc1OC (centres unmarked) | 202 |
| C[C@@H](NCc1cc2ccccc2[nH]1)c1cccc2ccccc12.Cl.Cl | 588 |

a: COc1ccc2[nH]c(CNC(C)c3cccc4ccccc34)cc2c1 (centres unmarked)
b: CC(NCc1cc2ccccc2[nH]1)c1cccc2ccccc12.Cl.Cl (centres unmarked)
Query: Compare the recorded activity at 10 µM of a and b ; state which is larger. Your answer should be the label attached to the chosen record.
Result: b

###

- Target system: CaSR (Rattus norvegicus)
- Construct: expressed in transfected cells; host or cells: CHO (Chinese hamster ovary) cells, CHO(CaSR)
- Sequence (P48442 20-1079): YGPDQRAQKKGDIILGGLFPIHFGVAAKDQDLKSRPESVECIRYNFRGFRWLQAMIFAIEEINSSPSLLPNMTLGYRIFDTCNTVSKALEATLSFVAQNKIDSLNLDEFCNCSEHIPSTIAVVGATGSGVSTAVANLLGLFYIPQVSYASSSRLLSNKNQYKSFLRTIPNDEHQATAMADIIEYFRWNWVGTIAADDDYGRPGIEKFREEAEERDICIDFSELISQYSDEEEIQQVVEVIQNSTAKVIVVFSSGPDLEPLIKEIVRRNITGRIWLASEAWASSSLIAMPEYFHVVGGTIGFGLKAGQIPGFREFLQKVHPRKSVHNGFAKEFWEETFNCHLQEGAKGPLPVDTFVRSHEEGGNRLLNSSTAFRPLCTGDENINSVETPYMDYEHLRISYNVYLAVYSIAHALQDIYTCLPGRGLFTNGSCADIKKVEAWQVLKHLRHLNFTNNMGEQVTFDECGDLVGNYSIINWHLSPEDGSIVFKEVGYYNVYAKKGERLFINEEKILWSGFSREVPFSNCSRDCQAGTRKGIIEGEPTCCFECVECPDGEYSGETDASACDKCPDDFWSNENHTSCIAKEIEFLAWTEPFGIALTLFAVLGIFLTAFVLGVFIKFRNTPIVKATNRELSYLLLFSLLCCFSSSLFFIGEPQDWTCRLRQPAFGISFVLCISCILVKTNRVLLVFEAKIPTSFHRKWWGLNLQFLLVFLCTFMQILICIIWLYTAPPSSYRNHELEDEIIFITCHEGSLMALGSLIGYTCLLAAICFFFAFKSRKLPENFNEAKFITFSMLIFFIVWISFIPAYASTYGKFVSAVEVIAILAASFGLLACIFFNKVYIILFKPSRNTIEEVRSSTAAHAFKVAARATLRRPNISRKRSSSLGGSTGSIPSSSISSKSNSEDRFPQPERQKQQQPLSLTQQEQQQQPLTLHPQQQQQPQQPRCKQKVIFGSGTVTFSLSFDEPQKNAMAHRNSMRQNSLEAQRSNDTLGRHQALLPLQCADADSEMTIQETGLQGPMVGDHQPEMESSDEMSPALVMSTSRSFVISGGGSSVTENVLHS
- Protocol notes: Accumulation of tritiated inositol phosphates in CHO(CaSR) cells
- Type: cell-based
- Test settings: compound 1 μM, CHO(CaSR) cells; read-out: Accumulation of (3H)-IP % of the 10 mM Ca2+ response ± S.E.
Recorded endpoint: activation at 1 µM (%)

Worked examples follow.
| Molecule | Target system | Unit symbol | Measurement |
| --- | --- | --- | --- |
| COc1cccc([C@@H](C)NCc2cc3ccccc3[nH]2)c1 | CaSR (Rattus norvegicus) | % | 76 |
| CC(NCc1cc2cc(Cl)ccc2[nH]1)c1cccc2ccccc12.Cl.Cl (centres unmarked) | CaSR (Rattus norvegicus) | % | 6 |
| C[C@@H](NCc1cc2ccccc2[nH]1)c1cccc2ccccc12.Cl.Cl | CaSR (Rattus norvegicus) | % | 73 |

a: CC(NCc1cc2ccccc2[nH]1)c1cccc2ccccc12.Cl.Cl (centres unmarked)
b: C[C@H](NCc1cc2ccccc2[nH]1)c1cccc2ccccc12
Query: Compare the recorded activation at 1 µM of a and b ; state which is larger. Your answer should be the label attached to the chosen record.
Result: a

###

- Target system: CaSR (Rattus norvegicus, UniProt P48442)
- Construct: expressed in transfected cells; host or cells: CHO (Chinese hamster ovary) cells, CHO(CaSR)
- Sequence (P48442 20-1079): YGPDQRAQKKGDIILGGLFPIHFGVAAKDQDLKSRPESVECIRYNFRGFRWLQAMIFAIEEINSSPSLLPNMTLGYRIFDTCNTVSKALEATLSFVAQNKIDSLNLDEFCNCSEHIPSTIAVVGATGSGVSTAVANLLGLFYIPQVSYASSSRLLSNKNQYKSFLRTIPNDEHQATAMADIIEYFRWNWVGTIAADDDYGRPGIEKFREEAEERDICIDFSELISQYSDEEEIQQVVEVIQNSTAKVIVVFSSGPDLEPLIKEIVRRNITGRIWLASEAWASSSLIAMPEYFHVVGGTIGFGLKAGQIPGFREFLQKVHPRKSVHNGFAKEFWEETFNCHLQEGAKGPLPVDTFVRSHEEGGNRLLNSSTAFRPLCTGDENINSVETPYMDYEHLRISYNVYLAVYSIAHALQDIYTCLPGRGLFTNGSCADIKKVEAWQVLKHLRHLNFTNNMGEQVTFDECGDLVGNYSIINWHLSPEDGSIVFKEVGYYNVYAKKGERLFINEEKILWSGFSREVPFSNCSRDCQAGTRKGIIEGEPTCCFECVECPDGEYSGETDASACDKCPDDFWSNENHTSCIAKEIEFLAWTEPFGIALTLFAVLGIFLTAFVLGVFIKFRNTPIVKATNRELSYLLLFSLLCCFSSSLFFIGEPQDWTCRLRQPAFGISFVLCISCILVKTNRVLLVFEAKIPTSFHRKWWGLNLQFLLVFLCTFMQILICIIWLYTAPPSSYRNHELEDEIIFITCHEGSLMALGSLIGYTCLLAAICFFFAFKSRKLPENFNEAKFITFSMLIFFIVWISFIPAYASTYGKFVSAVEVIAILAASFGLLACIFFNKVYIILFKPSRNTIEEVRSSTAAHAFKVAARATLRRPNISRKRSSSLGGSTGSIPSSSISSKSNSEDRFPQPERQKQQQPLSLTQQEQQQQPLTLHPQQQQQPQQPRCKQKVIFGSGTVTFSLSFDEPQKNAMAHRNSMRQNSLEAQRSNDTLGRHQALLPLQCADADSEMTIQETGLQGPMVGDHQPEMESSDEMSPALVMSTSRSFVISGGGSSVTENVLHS
- Protocol notes: Accumulation of tritiated inositol phosphates in CHO(CaSR) cells
- Assay type: cell-based
- Test settings: compound 10 μM, in the presence of 2 mM Ca2+, CHO(CaSR) cells; read-out: Accumulation of (3H)-IP % of the 10 mM Ca2+ response ± S.E.
- Description: The complementary DNA encoding rat CaSR has been isolated from a rat striatum cDNA library (Ruat et al, Proc. Natl. Acad. Sci., 1995). This receptor is identical, in terms of its amino acid sequence, to that expressed in the other tissues. Transfected Chinese hamster ovary (CHO) cells expressing rat CaSR (CHO(CaSR)) have been characterized and the chemical signals (second messengers) induced by activation of this receptor have been analyzed. […]
Recorded endpoint: activation at 10 µM (%)

Worked examples follow.
| Compound | Unit symbol | activation at 10 µM |
| --- | --- | --- |
| CC(NCC1Cc2ccccc2N1)c1cccc2ccccc12 (stereo not shown) [PHD 368] | % | 77 |
| COc1cccc([C@@H](C)NCCCc2ccccc2Cl)c1.Cl [NPS R-568] | % | 106 |
| COc1ccc2[nH]c(CNC(C)c3cccc4ccccc34)cc2c1 (stereo not shown) [PHD 359] | % | 55 |
| CC(NCc1cc2cc(F)ccc2[nH]1)c1cccc2ccccc12 (stereo not shown) [PHD 361] | % | 87 |
| CC(NCc1cc2cc(Cl)ccc2[nH]1)c1cccc2ccccc12.Cl.Cl (stereo not shown) [PHD 363] | % | 60 |

1: COc1ccc(S(=O)(=O)n2c(CNC(C)c3cccc4ccccc34)cc3ccccc32)cc1OC (stereo not shown) [PHD 338]
2: CC(NCc1cc2ccccc2n1C)c1cccc2ccccc12 (stereo not shown) [AK 43]
3: C[C@H](NCc1cc2ccccc2[nH]1)c1cccc2ccccc12 [PHD 337-S]
Query: Form: Sort by [activation at 10 µM] Order [ ascending ] Form field (ranking): labels in requested order.
Result: 3, 1, 2
(3: 32%, 1: 54%, 2: 79%)
